# method-summary: Distribution coefficient, log D of the compound in octanol and PBS buffer at pH 7.4 by shake-flask method
# Format: physicochemical
test-readout: logD
Kindly provide the number alone.

stdin: I would be grateful if you could share the reported logD for [18F]C1CCN(Cc2ccc(OCCCN3CCCCC3)cc2)CC1 .
stdout: 0.35

====

# method-summary: Metabolic stability human plasma assessed as parent compound level at 60 MBq after 90 mins by UPLC analysis
# Assay type: ADME, cell-free
# applied-conditions: read-out: Stability
test-readout: remaining at 1.5 h, 60 MBq (%)
Give just the numeric value; % need not be written.

stdin: I would be grateful if you could share the reported remaining at 1.5 h, 60 MBq for [18F]C1CCN(Cc2ccc(OCCCN3CCCCC3)cc2)CC1 .
stdout: 98
